Collected Concentration of the target in the solution measured after different incubation time values appear next to each entry.
Assay: Binary supramolecular self-assembly systems of polymer and target: guest concentration over incubation time (Comparative Example 2)
Format: physicochemical
Details: binary system with 0.5% polymer 102; incubation 6 h
measurementKind: Concentration of the target in the solution measured after different incubation time (µg/mL)

- C=CC[C@@H]1/C=C(\C)C[C@H](C)C[C@H](OC)[C@H]2O[C@@](O)(C(=O)C(=O)N3CCCC[C@H]3C(=O)O[C@H](/C(C)=C/[C@@H]3CC[C@@H](O)[C@H](OC)C3)[C@H](C)[C@@H](O)CC1=O)[C@H](C)C[C@@H]2OC [Tacrolimus]: 55.7
- Cc1cn(-c2cc(NC(=O)c3ccc(C)c(Nc4nccc(-c5cccnc5)n4)c3)cc(C(F)(F)F)c2)cn1 [Nilotinib]: 189.9
- COc1cc(/C=C/C(=O)CC(=O)/C=C/c2ccc(O)c(OC)c2)ccc1O [Curcumin]: 576.7
- CCCNS(=O)(=O)Nc1ncnc(OCCOc2ncc(Br)cn2)c1-c1ccc(Br)cc1 [Macitentan]: 89.5
- O=C1[C@@H]2[C@H]3CC[C@H](C3)[C@@H]2C(=O)N1C[C@@H]1CCCC[C@H]1CN1CCN(c2nsc3ccccc23)CC1 [Lurasidone, lurasidone]: 13.4
- CC1(C)CCC(CN2CCN(c3ccc(C(=O)NS(=O)(=O)c4ccc(NCC5CCOCC5)c([N+](=O)[O-])c4)c(Oc4cnc5[nH]ccc5c4)c3)CC2)=C(c2ccc(Cl)cc2)C1 [Venetoclax, venetoclax]: 272.1
- CNC(=O)c1cc(Oc2ccc(NC(=O)Nc3ccc(Cl)c(C(F)(F)F)c3)cc2)ccn1 [Sorafenib]: 102.9
- C=C(C)[C@@H]1CCC(C)=C[C@H]1c1c(O)cc(CCCCC)cc1O [Cannabidiol]: 333.1
- C=CC(=O)N1CCC[C@@H](n2nc(-c3ccc(Oc4ccccc4)cc3)c3c(N)ncnc32)C1 [Ibrutinib]: 154.5
- CCOC(=O)C1=C(C)NC(C)=C(C(=O)OC)C1c1cccc(Cl)c1Cl (centres unmarked) [Felodipine]: 459.4
- CC1=C(/C=C/C(C)=C/C=C/C(C)=C/CO)C(C)(C)CCC1 [Vitamin A, vitamin A]: 75.7
- O=C1C[C@@H](c2ccc(O)cc2)Oc2cc(O)cc(O)c21 [Naringenin]: 383.3
- CC(C)OC(=O)CCC/C=C\C[C@@H]1[C@@H](/C=C/C(F)(F)COc2ccccc2)[C@H](O)C[C@@H]1O [Tafluprost, tafluprost]: 67.3
- CC1=C[C@H](O)CC(C)(C)[C@H]1/C=C/C(C)=C/C=C/C(C)=C/C=C/C=C(C)/C=C/C=C(C)/C=C/C1=C(C)C[C@@H](O)CC1(C)C [Lutein, lutein]: 16.0
- CCOc1nc2cccc(C(=O)OC(C)OC(=O)OC3CCCCC3)c2n1Cc1ccc(-c2ccccc2-c2nnn[nH]2)cc1 (centres unmarked) [Candesartan Cilexetil, candesartan cilexetil]: 4.9
- CNC(=O)c1ccc(N2C(=S)N(c3ccc(C#N)c(C(F)(F)F)c3)C(=O)C2(C)C)cc1F [Enzalutamide]: 72.2
- COc1cc2nccc(Oc3ccc(NC(=O)NC4CC4)c(Cl)c3)c2cc1C(N)=O [Lenvatinib]: 27.8
- CC(=O)c1c(C)c2cnc(Nc3ccc(N4CCNCC4)cn3)nc2n(C2CCCC2)c1=O [Palbociclib]: 154.0
- CC#CC(=O)N1CCC[C@H]1c1nc(-c2ccc(C(=O)Nc3ccccn3)cc2)c2c(N)nccn12 [Acalabrutinib, acalabrutinib]: 608.2
- O=C(O)[C@H]1O[C@@H](Oc2cc3oc(-c4ccc(O)cc4)cc(=O)c3c(O)c2O)[C@H](O)[C@@H](O)[C@@H]1O [Scutellarin, scutellarin]: 102.2
- O=C1[C@H](CC[C@H](O)c2ccc(F)cc2)[C@@H](c2ccc(O)cc2)N1c1ccc(F)cc1 [Ezetimibe]: 138.9
- CCc1cc2c(cc1N1CCC(N3CCOCC3)CC1)C(C)(C)c1[nH]c3cc(C#N)ccc3c1C2=O [Alectinib, alectinib]: 45.9
- COC(=O)[C@H](c1ccccc1Cl)N1CCc2sccc2C1 [Clopidogrel, clopidogrel]: 26.1
- CCCCC1OC(=O)c2ccccc21 (centres unmarked) [Butylphthalide]: 244.5
- COC1=CC(=O)C[C@@H](C)[C@]12Oc1c(Cl)c(OC)cc(OC)c1C2=O [Griseofulvin, griseofulvin]: 28.6
- Cc1ccc(-c2cc(C(F)(F)F)nn2-c2ccc(S(N)(=O)=O)cc2)cc1 [Celecoxib]: 10.6
- CCC(C)n1ncn(-c2ccc(N3CCN(c4ccc(OCC5COC(Cn6cncn6)(c6ccc(Cl)cc6Cl)O5)cc4)CC3)cc2)c1=O (centres unmarked) [Itraconazole, itraconazole]: 24.7
- Cc1c(C)c2c(c(C)c1O)CC[C@@](C)(CCC[C@H](C)CCC[C@H](C)CCCC(C)C)O2 [Vitamin E, vitamin E]: 36.4
- CCCSc1nc(N[C@@H]2C[C@H]2c2ccc(F)c(F)c2)c2nnn([C@@H]3C[C@H](OCCO)[C@@H](O)[C@H]3O)c2n1 [Ticagrelor]: 161.4
